# SARS-CoV-2 infection rate annotations
System: Vero E6 infected with SARS-CoV-2
Assay: SARS-CoV-2 infection rate relative to infected DMSO; higher = more infection, active = 60 or less
Details: 24 h
result_type: SARS-CoV-2 infection rate

# molecule, result
measured = [
    ("CC(=O)N1CCC(C(=O)N(CCCN2CCC(Cc3ccc(C(N)=O)cc3)CC2)c2ccc(C)c(Cl)c2)CC1 (10 µM)", "107% (inactive)"),
    ("Cc1ccc(C(=O)Nc2ccc(S(=O)(=O)O)c3cc(S(=O)(=O)O)cc(S(=O)(=O)O)c23)cc1NC(=O)c1cccc(NC(=O)Nc2cccc(C(=O)Nc3cc(C(=O)Nc4ccc(S(=O)(=O)O)c5cc(S(=O)(=O)O)cc(S(=O)(=O)O)c45)ccc3C)c2)c1 [suramin] (10 µM)", "101% (inactive)"),
    ("Cc1ccc2nc(N)[nH]c(=O)c2c1Sc1ccncc1 [nolatrexed] (10 µM)", "108% (inactive)"),
    ("CCC[C@@H]1CC(=O)N([C@@H](CC)C(N)=O)C1 [Brivaracetam] (10 µM)", "111% (inactive)"),
    ("Nc1ncnc2c1c(COc1cccc(Cl)c1)nn2C1CCOCC1 (10 µM)", "104% (inactive)"),
    ("NCCC(=O)N[C@@H](Cc1c[nH]cn1)C(=O)O [carnosine] (0.833333 µM)", "99% (inactive)"),
    ("O=[N+]([O-])c1ccc2c(c1)S(=O)(=O)C=C2 [stattic] (0.833333 µM)", "100% (inactive)"),
]

----------
Tested on: Vero E6 infected with SARS-CoV-2
Test: inhibition of SARS-CoV-2 cytopathic effect; higher = more antiviral protection, active = above 15
Details: 10000 nM; 48 h
result_type: inhibition of SARS-CoV-2 cytopathic effect (%)

# molecule, numeric_value
records = [
    ("CCN(CC)C(=O)N1CCN(C)CC1 [diethylcarbamazine]", -2.31),
    ("O=Nc1ccc(O)c2ncccc12", 19.6),
    ("Cc1c(-c2ccc(O)cc2)n(Cc2ccc(OCCN3CCCCCC3)cc2)c2ccc(O)cc12 [bazedoxifene]", 48.9),
    ("Cc1cc(-c2ncc(CC(=O)Nc3ccc(-c4cnccn4)cn3)cc2C)ccn1", 2.89),
    ("CN1CCN(c2c(F)cc3c(=O)c(C(=O)O)cn(CCF)c3c2F)CC1 [fleroxacin]", -1.08),
]

----------
Test system: Vero E6 infected with SARS-CoV-2
Test: SARS-CoV-2 infection rate relative to infected DMSO; higher = more infection, active = 60 or less
Settings: 24 h
Classes used: Yes = active, No = inactive

# molecule, assayed_system, assigned_class
records = [
    ("OB1OCc2cc(Cl)ccc21 (10 µM)", "Vero E6 infected with SARS-CoV-2", "No"),
    ("CC1Nc2ccc(Cl)cc2S(=O)(=O)N1 (stereo not given) (10 µM)", "Vero E6 infected with SARS-CoV-2", "No"),
    ("C[N+]12CCCCC1CCC(=C(c1cccs1)c1cccs1)C2 (stereo not given) [tiquizium] (10 µM)", "Vero E6 infected with SARS-CoV-2", "No"),
    ("c1cc2c3c(c1)c1c(n3CCNC2)CCCC1 (10 µM)", "Vero E6 infected with SARS-CoV-2", "No"),
    ("CN(NC(=O)CC(=O)NN(C)C(=S)c1ccccc1)C(=S)c1ccccc1 [elesclomol] (10 µM)", "Vero E6 infected with SARS-CoV-2", "Yes"),
    ("O=c1[nH]c2ccc(Cl)cc2c(N[C@@H]2CN3CCC2CC3)c1-c1nc2ccccc2[nH]1 (10 µM)", "Vero E6 infected with SARS-CoV-2", "No"),
    ("CNCC(=O)O [sarcosine] (10 µM)", "Vero E6 infected with SARS-CoV-2", "No"),
    ("O=C(O)c1ccccc1-c1ccc(C(F)(F)F)cc1 [xenalipin] (10 µM)", "Vero E6 infected with SARS-CoV-2", "No"),
    ("c1ccc(C(O[C@@H]2CCCN(CCc3ccc4c(c3)OCO4)C2)c2ccccc2)cc1 [zamifenacin] (10 µM)", "Vero E6 infected with SARS-CoV-2", "No"),
    ("Cc1cccc(-c2nn3c(c2-c2ccnc4ccc(C(N)=O)cc24)CCC3)n1 (10 µM)", "Vero E6 infected with SARS-CoV-2", "No"),
]

----------
Test system: Vero E6 infected with SARS-CoV-2
Assay: inhibition of SARS-CoV-2 cytopathic effect; higher = more antiviral protection, active = above 15
Details: 833.33 nM; 48 h
result_type: inhibition of SARS-CoV-2 cytopathic effect (%)

# molecule, readout_unit, numeric_value
records = [
    ("CN(C)CC/C=C1/c2ccccc2COc2ccccc21 [doxepin]", "%", -1.94),
    ("COc1ccc2cc(OCC3(C(=O)O)CN(C(=O)c4ccc(F)cc4)C3)ccc2c1", "%", 2.44),
    ("C[C@@H]1C[C@H]2[C@@H]3CCC4=CC(=O)C=C[C@]4(C)[C@@]3(Cl)[C@@H](O)C[C@]2(C)[C@@]1(OC(=O)c1ccco1)C(=O)CCl", "%", -2.86),
    ("Fc1ccc(-c2nc3n(c2-c2ccncc2)CCS3)cc1", "%", -1.03),
    ("CN1[C@@H]2CC[C@H]1C[C@@H](OC(=O)c1c[nH]c3ccccc13)C2 [tropisetron]", "%", 1.27),
]

----------
Tested on: Vero E6 infected with SARS-CoV-2
Assay: inhibition of SARS-CoV-2 cytopathic effect; higher = more antiviral protection, active = above 15
Details: 1 nM; 48 h
result_type: inhibition of SARS-CoV-2 cytopathic effect (%)

# compound, readout_unit, numeric_value
rows = [
    ("O=C1c2ccccc2C(=O)c2ccccc21", "%", -2.37),
    ("Clc1ccc2nsnc2c1NC1=NCCN1", "%", 2.21),
    ("CNCc1cc(-c2ccccc2F)n(S(=O)(=O)c2cccnc2)c1", "%", -3.91),
    ("CC(C)(C)NCC(O)c1cc(Cl)c(N)c(Cl)c1 (stereo not given)", "%", -0.45),
    ("COc1cc(C(=O)N(CC[C@H]2CCCN2C)C/C(C)=C/c2ccccc2F)cc(OC)c1OC (racemic)", "%", -0.69),
    ("Cc1cn2nc([C@@H]3CCCCN3C(=O)c3cc(Cl)ccc3NS(C)(=O)=O)cc2nc1N1CC[C@H](N)C1", "%", 2.31),
    ("OCCC#Cc1nc(-c2ccc(F)cc2)c(-c2ccncc2)n1CCCc1ccccc1", "%", 2.21),
    ("Cc1ccc(CNc2ncnc3ccc(-c4ccc(CO)o4)cc23)o1", "%", -1.31),
    ("COc1ccc(CCN(C)CCCN2CCc3cc(OC)c(OC)cc3CC2=O)cc1OC", "%", 0.14),
    ("CC(=O)c1cc2c(o1)C(=O)c1ccccc1C2=O", "%", 0.24),
]

----------
# inhibition of SARS-CoV-2 cytopathic effect annotations
Test system: Vero E6 infected with SARS-CoV-2
Assay: inhibition of SARS-CoV-2 cytopathic effect; higher = more antiviral protection, active = above 15
Conditions: 100 nM; 48 h
result_type: inhibition of SARS-CoV-2 cytopathic effect (%)

# molecule, readout_unit, numeric_value
records = [
    ("NCCCCCC(O)(P(=O)(O)O)P(=O)(O)O", "%", -2.11),
    ("CNCC[C@H](Oc1cccc2ccccc12)c1cccs1", "%", 0.92),
    ("Cn1c(C#N)ccc1-c1ccc2c(c1)C(C)(C)OC(=S)N2", "%", 0.34),
    ("c1cc(CN2CCCCC2)cc(OCCCNc2nc3ccccc3s2)c1 [zolantidine]", "%", 1.37),
    ("COc1cc(C[C@@H](CO)[C@H](CO)Cc2ccc(O)c(OC)c2)ccc1O [secoisolariciresinol-(-)]", "%", 0.9),
    ("Cc1cc(/C=C/c2ccc3cc(N(C)C)ccc3[n+]2C)c(C)n1-c1ccccc1 [pyrvinium-pamoate]", "%", -3.02),
    ("O=C1C(O)=C([C@H]2CC[C@H](c3ccc(Cl)cc3)CC2)C(=O)c2ccccc21", "%", -3.09),
    ("CC(C)(C)NCC(O)c1cc(Br)no1 (centres undefined)", "%", -1.23),
    ("Oc1cccc(-c2nc(N3CCOCC3)c3oc4ncccc4c3n2)c1", "%", -0.59),
]

----------
# inhibition of SARS-CoV-2 cytopathic effect annotations
System: Vero E6 infected with SARS-CoV-2
Assay: inhibition of SARS-CoV-2 cytopathic effect; higher = more antiviral protection, active = above 15
Settings: 10000 nM; 48 h
result_type: inhibition of SARS-CoV-2 cytopathic effect (%)

# compound, numeric_value
data = [
    ("COC(=O)[C@H](CC(C)C)NC(=O)[C@@H](N)CC(C)C", -0.55),
    ("CC(C(=O)O)c1ccc2c(c1)[nH]c1ccc(Cl)cc12 (centres undefined)", 3.76),
    ("O=C(O)C1=CO[C@@H](O[C@@H]2O[C@H](CO)[C@@H](O)[C@H](O)[C@H]2O)[C@@H]2C(CO)=CC[C@H]12", 1.07),
    ("CCOC(=O)N[C@@H]1CC[C@@H]2[C@@H](C1)C[C@H]1C(=O)O[C@H](C)[C@H]1[C@H]2/C=C/c1ccc(-c2cccc(F)c2)cn1", 0.22),
]

src = the supplement of paper PMC13380429
